The measurements presented in this section are drawn from the nanobody polyreactivity screen of Harvey et al. (2022).

assay: yeast display, Sf9 membrane polyspecificity reagent, FACS + sequencing; frameworks hold sequencing errors
READOUT_NAME: polyreactivity (PSR sort gate)

SEQUENCE_CHAIN: QVQLVESGGGLVQAGGSLRLSCAASGGIFSAYDMAWYRQAPGKERELVAAINSGGSTNYADSVKGRFTISRDNAKNTVYLQMNSLKPEDTAVYYCAAAKVSWFGLKYYYWGQGTQVTVSS
DATA_VALUE: high polyreactivity
--
SEQUENCE_CHAIN: QVQLVESGGVLVQSGGSLRLSCAASGITLSRYAMGWYRQAPGKERELVAAISRRGGSTYYADSVKGRFTISRDNAKNSVYLQLNSLKPEDTAVDYCAATRYASLSDSGFNYWGQGTQVTVSS
DATA_VALUE: high polyreactivity
--
SEQUENCE_CHAIN: QVQLVESGGGLVQAGGSLRLSCAASGFIFDVNAMGWYRQAPGKETELVAAISKSGRRTYYADSVKGRFTISRDNAKNTVYLQMNSLKPEDTAVYYCAASLRASPSFGYWGQGTQVTVSS
DATA_VALUE: high polyreactivity
--
SEQUENCE_CHAIN: QVQLVESGGGLVQAGGSLRLSCASSGRTFGINAMGWYRQAPGKERELVAVISFGDGGTYYADSVKGRFTISRDNAKNTVYLQMNSLNPEDSAVYYCATDYQSTSVWGGHFVINPYDYWGQGTQVTVSS
DATA_VALUE: low polyreactivity
--
SEQUENCE_CHAIN: QVQLVESGGGLVQAGGSLPLSCAASGSIFDDYAMGWYRQAPGKEWELVAAITSGGSTYYADSVKGRFTISRDNAKYTVYLQMNSLKPEDTAVYYCAAPENKYDEYDYWGQGTQVTVSS
DATA_VALUE: low polyreactivity
--
SEQUENCE_CHAIN: QVQLVESGGGLVQAGGSLRLSCAASGSIFDDYAMGWYRQAPGKERELVATITSGDTTNYADSVKGRFTISRDNAKNTVYLQMNSLKPEDTAVYYCAADYLTSRSRTFDYWGQGTQVTVSS
DATA_VALUE: low polyreactivity
--
SEQUENCE_CHAIN: QVQLVESGGGLVQAGGSLRLSCAASGIIFAAYVMGWYRQAPGKERELVAAISKSGGRTYYADSVKGRFTISRDNAKNTVYLQMNSLKREDTAVYYCAASYTYYSIGLGTDVRYGYWGEGTQVTVSS
DATA_VALUE: high polyreactivity
--
SEQUENCE_CHAIN: QVQLVESGGGLVQAGGSLRLSCAASGRTFYSNAMGWYRQPPGKERELVAAIRRSGGSTYYADSVKGRFTISRDNAKNTVYLQMNSLKPEDTAVYYCNAPHHRYDWGQGTQVTVSS
DATA_VALUE: high polyreactivity
--
SEQUENCE_CHAIN: QVHLVESGGGIVQAGGRLRLSCAASGLIFYHYAMGWYRQAPGKEREFVAAITVSGGSTYYADSVKGRFTITRDNAKNTVYLQMNSLKPEDSAVYYCNARSVVWWASGDYWGQGTQVTVSS
DATA_VALUE: low polyreactivity
--
SEQUENCE_CHAIN: QVQLVESGGGLVQAGRSLRLSCAASGRTFGGNAMGWYRQAPGKERELVAAIDQSGGSTYYADSVKGRFTISRDNAKNTVYLQMNSLKPEDTAVYYCATHDGGTYYVREPNVKYDYWGQVTQVTVSS
DATA_VALUE: low polyreactivity
--
SEQUENCE_CHAIN: QVQLVESGGGLVHAGGRLRLSCAASGRIFYTYTMGWYSQAPGKERELVATITDGTRTNYADSVKGRFTISRDNAKITVYLQMTSLQPEDTAVYYCNAAGRWHDLYRINYDYWGQGTKVTVSS
DATA_VALUE: low polyreactivity

====

test: yeast display, Sf9 membrane polyspecificity reagent, FACS + sequencing; frameworks hold sequencing errors

SEQUENCE_CHAIN: QDPLEESGGGLVQAGGSLRLSCAASGFTFTDYAMGWTRQAPGKERQLVAVISRSGGSTNYADSVKGRFTISRDKAKNTVYLQMNCLKPEDTAVYYCNAGKYLYRHGFLSSGDMYYWGQGTQVTVSS
polyreactivity (PSR sort gate): high polyreactivity
--
SEQUENCE_CHAIN: QVQLVESGGGVVQAGGSLRLSCAASGSTFFYYAMGWYRQAPGKERELVATIRGSAGRTYYADSVKGRFTISRDHAKYTVYLQMNCLKPEDTAVYYCARRYWPGSAYWIYDYWGQGTQVTVSS
polyreactivity (PSR sort gate): high polyreactivity
--
SEQUENCE_CHAIN: QVQLVESGGGLVQAGGSLRLSCAASGSTFDKYAMGWYRQAPGKERELVAVISGSGGRTYYADSVKGRFTISRDNAKNTVYLQMNSLKPEDTAVYYCAARGSFKKGYWGQGTQVTVSS
polyreactivity (PSR sort gate): high polyreactivity
--
SEQUENCE_CHAIN: QVQLVESGGGLVQAGGSLRLSCAASGRTFSNNVMGWYRQAPGKERELVAAISGRGGRTYYADSVKGRFTISRDNAKNTVYLQMNSLKPEDTAVYYCAAGAYWPDEYWGQGTQVSVSS
polyreactivity (PSR sort gate): high polyreactivity
--
SEQUENCE_CHAIN: QVQLVESGGGLVQAGGSLRLSCAASGFIFRGNAMGWYRQAPGKERELVAAISRRGGTTYYADSVKGRFTISRDNAKNTVYLQMNSLKPEDTAVYYCAKLVVVPFYYWGQGTQVTVSS
polyreactivity (PSR sort gate): high polyreactivity
--
SEQUENCE_CHAIN: QVQLVESGGGLVQAGGSLRLSCAASGSTFVGNAMGWYRQAPGKERELVAAITGGGGSTYYADSVKGRFTISRDNAKNTVYLQMNSLKPEDTAVYYCARDRTDYYVWYVRYYYWGQGTQVTVSS
polyreactivity (PSR sort gate): low polyreactivity
--
SEQUENCE_CHAIN: QVQLVESGGGLVQAGGSLRLSCAASGITFGWYAMGWYRQAPGKERELVAAISGRGGRTYYADSVKGRFTISRDNAKYTVYLQMNSLKPEVTAVYYCAARARRWSYITGSYVLIEYEYWGQGTQVTVSS
polyreactivity (PSR sort gate): high polyreactivity
--
SEQUENCE_CHAIN: QVQHVESGGGLVQAGGSLRLSCAASGSTFSKYAMGWYRLAPGKERELVAAINYGGTSTYYADSVKGRFTISRDNAKNTVYLQMNSLKPEDTAVYYCAVIYRRLYTGGQNPYDYWGQGTQVTVSS
polyreactivity (PSR sort gate): high polyreactivity
--
SEQUENCE_CHAIN: QVQLVESGVGLVQAGGSLRLSCAASGSIFQSYDMGWYRQAPGKERELVAAISWSGSTTYYADSVKGRFTISRDNAKNTVYLQMNSLKPEDTAVYYCAVDSNPPDWWAVIYGFWGQGTQVTVSS
polyreactivity (PSR sort gate): low polyreactivity
--
SEQUENCE_CHAIN: QVQLVESGGGLVQAGGSLRLSCAASGSIFRSYAMGWYRQAPGKEREFVAAISNGGRTSYADSVKGRFTISRDNAKYNVYLQMNSLKPEDTAVYDCNARYSRRAMGYWGQGTQVTVSS
polyreactivity (PSR sort gate): high polyreactivity
--
SEQUENCE_CHAIN: QVQLVESVGGLVQAGGSLRLSCAASGSIFAYNTMGWYRQAPGKERELVAAIRSRGGSTYYADSVKGRFTISRDNAKNTVYIQMNSLKPEDTPVSSCNAVGRARTLGSNTYGYWGQGTQVTVSS
polyreactivity (PSR sort gate): high polyreactivity

====

assay: yeast display, Sf9 membrane polyspecificity reagent, FACS + sequencing; frameworks hold sequencing errors
READOUT_NAME: polyreactivity (PSR sort gate)

SEQUENCE_CHAIN: QVQLVESGGGLVQAGGSLRLSCAASGFILRYYAMGWYRPAPGNERELVAAISSGGGTYYADSVKGRFTISRDNAKNTVYLQMNSLKPEDTAVYYCNKASTSYYRFNYWGQGTQVTVSS
READOUT_NAME: polyreactivity (PSR sort gate)
DATA_VALUE: high polyreactivity

SEQUENCE_CHAIN: QVQLVESGGGLVQAGGSLRLSCAASGSTFFGYDMGWYRQAPGTERELVATINSGGSTYYADSVKGRFTISRDNAKYTVYLQMNSLKPEDTAVYYCAARPSYLYPFDRTGEYDYWGQGTQVTVSS
READOUT_NAME: polyreactivity (PSR sort gate)
DATA_VALUE: high polyreactivity

SEQUENCE_CHAIN: QVQLVESGGGLVQAGGSLRLSCAASGSIFDSYDRGWYREAPGKERELVAAITSGGSTNYADSVKGRFTISRDNAKNTVYLQMNSLKPEDTAVYYCAAYYWYPVYYGYDYGGQGTQVTVSS
READOUT_NAME: polyreactivity (PSR sort gate)
DATA_VALUE: low polyreactivity

SEQUENCE_CHAIN: QVQLQESGGGLVQAGGTLRLSCAASGSFSADEDMGWYRQAQGKEREFVAGISVGGNTNYADSVKGPFTISRENAKNTVYLQINSLKPEDTAVYYCAVLQDVYDALDFWAQGTQVTVSS
READOUT_NAME: polyreactivity (PSR sort gate)
DATA_VALUE: high polyreactivity

SEQUENCE_CHAIN: QVQLVESGGGLVQAGGSLRLSCAASGRIFGNYAMGWYRQAPGKERELVAAISGGGSTYYADSVKGRFTISRDNAKNTVYLQLNSLKPEDTAVYYCAARFLWSVFGGKGGYWGQGTQVTVSS
READOUT_NAME: polyreactivity (PSR sort gate)
DATA_VALUE: low polyreactivity
